systemUnderTest: UniProt:Q07817
Sequence (Q07817 whole entry): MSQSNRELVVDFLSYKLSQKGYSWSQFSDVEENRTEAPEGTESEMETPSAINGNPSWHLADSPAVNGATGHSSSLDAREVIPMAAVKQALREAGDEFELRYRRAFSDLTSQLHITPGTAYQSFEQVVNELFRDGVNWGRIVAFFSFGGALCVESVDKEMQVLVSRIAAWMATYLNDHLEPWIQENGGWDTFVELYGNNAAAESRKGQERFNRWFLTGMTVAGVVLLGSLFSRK
procedureDetails: Binding affinity to Bcl-xL (unknown origin) assessed as inhibition constant
measuredParameter: Ki

Prompt line: Notebook entry, UniProt:Q07817 assay: Ki of Cc1c(Cl)c2c(Cl)c(C)c1-c1c(-c3ccc(F)cc3)sc3ncnc(c13)O[C@@H](C(=O)O)Cc1cc(ccc1OCc1ccnc(-c3ccc(OC[C@@H]4COCCO4)cc3)n1)OC[C@@H](CN1CCN(C)CC1)O2 = ?
Response line: > 0.66 µM

* * *

systemUnderTest: Induced myeloid leukemia cell differentiation protein Mcl-1 (Homo sapiens)
Sequence (Q07820 whole entry): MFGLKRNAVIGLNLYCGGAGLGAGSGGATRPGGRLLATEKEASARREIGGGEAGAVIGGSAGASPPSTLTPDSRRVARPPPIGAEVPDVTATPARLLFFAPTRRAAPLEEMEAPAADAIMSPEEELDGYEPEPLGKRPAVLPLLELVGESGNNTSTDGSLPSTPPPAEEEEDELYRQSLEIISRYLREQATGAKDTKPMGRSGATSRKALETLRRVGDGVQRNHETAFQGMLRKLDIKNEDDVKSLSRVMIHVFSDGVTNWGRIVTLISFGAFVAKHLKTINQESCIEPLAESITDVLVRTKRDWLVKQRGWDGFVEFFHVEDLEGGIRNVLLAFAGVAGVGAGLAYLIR
procedureDetails: Binding affinity to human Mcl-1 assessed as inhibition constant
measuredParameter: Ki (pM)
Numbers only; they are read as pM.

Prompt line: I'd like to know its Ki. The molecule in question is COCCOCCn1nc(C)c2c1CSCc1cc(n(C)n1)CCc1cc(c3ccccc3c1)OCCCn1c(C(=O)O)c(C)c3c-2c(Cl)ccc31
Response line: 6

* * *

System: NCI-H23
procedureDetails: Antiproliferative activity against human NCI-H23 cells assessed as reduction in cell viability incubated for 24 hrs by Celltiter-Glo reagent based assay
Format: functional
cond: NCI-H23, 24 h
measuredParameter: EC50 (nM)
Numbers only; they are read as nM.

Prompt line: I'd like to know its EC50. The compound in question is Cc1c2c(nn1C)CSCc1cc(n(C)n1)CSc1cc(c3ccccc3c1)OCCCc1c(C(=O)O)n(C)c3c-2c(Cl)ccc13
Response line: 190

* * *

Test system: MV4-11
procedureDetails: Antiproliferative activity against human MV4-11 cells assessed as reduction in cell viability
Type: functional, cell-based
So I've got a bunch of molecules here, and I need their EC50 values.
Numbers only; they are read as µM.

Prompt line: I'd like to know its EC50. The molecule in question is CO[C@]1(CN2CCN3CCCC[C@@H]3C2)/C=C/C[C@H](C)[C@@H](C)S(=O)(=O)NC(=O)c2ccc3c(c2)N(C[C@@H]2CC[C@H]21)C[C@@]1(CCCc2cc(Cl)ccc21)CO3 [MURIZATOCLAX]
Response line: 0.0436

Prompt line: Also need Cc1c(Cl)c2c(Cl)c(C)c1-c1c(-c3ccc(F)cc3)sc3ncnc(c13)O[C@@H](C(=O)O)Cc1cc(ccc1OCc1ccnc(-c3ccc(OC[C@@H]4COCCO4)cc3)n1)OC[C@@H](CN1CCN(C)CC1)O2 , thanks.
Response line: 0.00391

Prompt line: Also need Cc1c2c(nn1C)CSCc1cc(n(C)n1)CSc1cc(c3ccccc3c1)OCCCc1c(C(=O)O)n(C)c3c-2c(Cl)ccc13 [AZD-5991] , thanks.
Response line: 0.0349

Prompt line: Also need COc1ccccc1-c1nccc(COc2ccccc2C[C@H](Oc2ncnc3sc(-c4ccc(F)cc4)c(-c4ccc(OCCN5CCN(C)CC5)c(Cl)c4C)c23)C(=O)O)n1 , thanks.
Response line: 0.0109
